Sourced from ChEMBL document CHEMBL1136424

- TEST SUMMARY: Half-life was measured in mice
- Assay type: ADME, organism-based
- EXPERIMENTAL SETUP: mouse, in vivo
PARAMETER: half-life

// returns reported half-life for input Cc1nc(-c2ccc(C(F)(F)F)cc2)oc1COc1ccc(CCC(=O)O)cc1
< 10 min

====

- TARGET OR TEST SYSTEM: Peroxisome proliferator-activated receptor gamma (Homo sapiens)
- Sequence (P37231 whole entry): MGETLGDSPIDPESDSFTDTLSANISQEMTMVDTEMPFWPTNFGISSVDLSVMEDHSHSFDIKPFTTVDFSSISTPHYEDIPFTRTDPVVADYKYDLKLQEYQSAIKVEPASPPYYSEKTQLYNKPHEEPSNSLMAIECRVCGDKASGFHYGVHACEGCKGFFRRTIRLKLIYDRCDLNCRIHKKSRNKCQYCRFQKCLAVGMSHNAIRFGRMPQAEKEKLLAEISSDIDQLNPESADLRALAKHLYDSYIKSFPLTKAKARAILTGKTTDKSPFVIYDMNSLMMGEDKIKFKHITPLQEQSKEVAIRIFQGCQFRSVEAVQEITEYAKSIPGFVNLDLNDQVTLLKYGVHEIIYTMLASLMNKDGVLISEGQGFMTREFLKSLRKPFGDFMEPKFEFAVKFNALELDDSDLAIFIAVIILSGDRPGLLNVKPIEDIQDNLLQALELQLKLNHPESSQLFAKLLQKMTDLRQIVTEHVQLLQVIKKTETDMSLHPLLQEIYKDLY
- TEST SUMMARY: Maximum transcriptional activation of human PPAR gamma receptor
Binary call on EC50 with cut-off 3 µM: strictly below means satisfied, and equality or higher means not satisfied.

# strict comparison: is reported EC50 < 3 µM? input = Cc1cc(OCc2sc(-c3ccc(C(F)(F)F)cc3)nc2C)ccc1CCC(=O)O
not satisfied

# strict comparison: is reported EC50 < 3 µM? input = Cc1cc(SCc2oc(-c3ccc(C(F)(F)F)cc3)nc2C)ccc1OCC(=O)O
satisfied

# strict comparison: is reported EC50 < 3 µM? input = Cc1nc(-c2ccc(C(F)(F)F)cc2)oc1COc1ccc(OCC(=O)O)cc1
not satisfied

# strict comparison: is reported EC50 < 3 µM? input = Cc1nc(-c2ccc(C(F)(F)F)cc2)oc1CSc1ccc(OCC(=O)O)cc1
not satisfied

# strict comparison: is reported EC50 < 3 µM? input = Cc1nc(-c2ccc(C(F)(F)F)cc2)sc1COc1ccc(CCC(=O)O)cc1
not satisfied

# strict comparison: is reported EC50 < 3 µM? input = Cc1cc(SCc2sc(-c3ccc(C(F)(F)F)c(F)c3)nc2C)ccc1OCC(=O)O
satisfied

# strict comparison: is reported EC50 < 3 µM? input = Cc1cc(OCc2sc(-c3ccc(C(F)(F)F)cc3)nc2C)ccc1/C=C/C(=O)O
satisfied

# strict comparison: is reported EC50 < 3 µM? input = Cc1nc(-c2ccc(C(F)(F)F)cc2)oc1COc1ccc(CCC(=O)O)cc1
not satisfied

# strict comparison: is reported EC50 < 3 µM? input = Cc1nc(-c2ccc(C(F)(F)F)cc2)sc1COc1ccc(CC(=O)O)cc1
not satisfied
